# Assay protocol: Chemical stability of the compound in buffer at pH 4.5 after 30 mins by LC/MS analysis
# Assay type: physicochemical
# Experimental setup: read-out: Stability
Readout name: remaining at 0.5 h (%)
Report as a plain number; the unit % is understood.

Problem: Give the measured remaining at 0.5 h of `CCCCCCNC(=O)n1cc(C#N)c(=O)[nH]c1=O` .
Solution: 22

----------
# Tgt: Acid ceramidase (Rattus norvegicus, UniProt Q6P7S1)
# Assay protocol: Inhibition of rat recombinant acid ceramidase expressed in human HEK293 cells using N-lauroylceramide as substrate incubated for 30 mins prior to substrate addition measured after 30 mins by LC/MS analysis
# Experimental setup: hek293
Readout name: IC50

>  <Chem smiles>
CCCCCCNC(=O)N1CCC(=O)NC1=O

>  <Value reported>
Not Active

$$$$
>  <Chem smiles>
CCCCCCNC(=O)n1c(C)c(C)c(=O)[nH]c1=O

>  <Value reported>
ND(Unstable)

$$$$
>  <Chem smiles>
CCCCCCNC(=O)n1c(Cl)cc(=O)[nH]c1=O

>  <Value reported>
ND(Unstable)

$$$$
>  <Chem smiles>
CCCCCCN(C)C(=O)n1ccc(=O)[nH]c1=O

>  <Value reported>
Not Active

$$$$

Problem: Give the measured IC50 of `CCCCCCNC(=O)n1cc(C#N)c(=O)[nH]c1=O` .
Solution: ND(Unstable)

----------
# Tgt: Acid ceramidase (Rattus norvegicus, UniProt Q6P7S1)
# Assay protocol: Inhibition of rat recombinant acid ceramidase expressed in human HEK293 cells using N-lauroylceramide as substrate incubated for 30 mins prior to substrate addition measured after 30 mins by LC/MS analysis
# Experimental setup: read-out: IC50
Readout name: pIC50
Units for pIC50: none; it is -log10 of a concentration expressed in mol/L.

>  <Chem smiles>
CCCCCCCCNC(=O)n1cc(F)c(=O)[nH]c1=O

>  <Value reported>
7.34

$$$$
>  <Chem smiles>
CCCCCCNC(=O)n1cc(C)c(=O)[nH]c1=O

>  <Value reported>
5.84

$$$$
>  <Chem smiles>
CCCCNC(=O)n1ccc(=O)[nH]c1=O

>  <Value reported>
5.07

$$$$
>  <Chem smiles>
CCCCCCNC(=O)n1ccc(=O)n(C)c1=O

>  <Value reported>
7.28

$$$$
>  <Chem smiles>
CCCCCCCNC(=O)n1ccc(=O)[nH]c1=O

>  <Value reported>
6.49

$$$$

Problem: Give the measured pIC50 of `CCCCCCCCNC(=O)n1ccc(=O)[nH]c1=O` .
Solution: 6.55

Problem: Queued: `CCCCCCCCCNC(=O)n1ccc(=O)[nH]c1=O`
Solution: 6.33

----------
# Tgt: Acid ceramidase (Rattus norvegicus)
# Assay protocol: Inhibition of rat recombinant acid ceramidase expressed in human HEK293 cells using N-lauroylceramide as substrate incubated for 30 mins prior to substrate addition measured after 30 mins by LC/MS analysis
# Experimental setup: read-out: IC50
Assign labels as follows, please: y for IC50 below 20 nM; n for IC50 equal to or exceeding 20 nM.

>  <Chem smiles>
CCCCCNC(=O)n1ccc(=O)[nH]c1=O

>  <Class label>
n

$$$$
>  <Chem smiles>
CCCCCCNC(=O)n1cc(F)c(=O)n(C)c1=O

>  <Class label>
y

$$$$
>  <Chem smiles>
CCCCCCNC(=O)n1cc(F)c(=O)n(C(=O)C(C)C)c1=O

>  <Class label>
n

$$$$

Problem: Regarding `CCCCCCNC(=O)n1cc(F)c(=O)n(CC)c1=O` , kindly confirm whether its IC50 is beneath 20 nM.
Solution: y

Problem: Queued: `CCCCCCCCNC(=O)n1cc(F)c(=O)n(C(=O)OC)c1=O`
Solution: y

Problem: Queued: `CCCCCCNC(=O)n1cc(F)c(=O)n(C(=O)OCC(C)C)c1=O`
Solution: y

Problem: Queued: `CCCCCCNC(=O)n1cc(F)c(=O)n(C(=O)OC)c1=O`
Solution: y

Problem: Queued: `CCCCCCNC(=O)n1cc(F)c(=O)n(C(=O)OCC)c1=O`
Solution: y

Problem: Queued: `CCCCCCNC(=O)n1cc(CC)c(=O)[nH]c1=O`
Solution: n

Problem: Queued: `CCCCCCNC(=O)n1cc(F)c(=O)n(CC2CC2)c1=O`
Solution: n

Ref: ChEMBL document CHEMBL2331267
